Reference source for all entries: patent US20230365675A1

Molecular target: CD33-GFP fusion protein, wild type (WT), on 293FT cells (UniProt P20138)
Sequence (P20138 18-364): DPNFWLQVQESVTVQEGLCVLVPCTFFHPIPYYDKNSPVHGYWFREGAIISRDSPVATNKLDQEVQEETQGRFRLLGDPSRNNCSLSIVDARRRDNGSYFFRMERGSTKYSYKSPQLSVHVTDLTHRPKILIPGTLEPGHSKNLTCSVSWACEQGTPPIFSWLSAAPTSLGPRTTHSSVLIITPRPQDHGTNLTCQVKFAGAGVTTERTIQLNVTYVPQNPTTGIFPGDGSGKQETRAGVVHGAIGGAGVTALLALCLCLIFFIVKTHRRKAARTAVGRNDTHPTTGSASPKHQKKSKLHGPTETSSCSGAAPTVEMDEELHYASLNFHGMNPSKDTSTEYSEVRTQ
Assay: FACS, WT CD33-GFP on 293FT cells
Listing of entries alongside the reported FACS binding data.

| Binder | FACS binding data |
| --- | --- |
| sdCD33_8 (VHH, sdAb from a naive llama phage library; also called 424; sdAb424) VHH: QVQLVESGGGLVQAGGSLRLSCAASGGAFSTYTMGWFRQAPGKEREFVAAIAWTGTHTYYSDSVKGRFTISRDNDKNTVFLQMNSLKPEDTAVYYCAQASSRYRAVTDSLSENHWGPGTQVTVST | 98.6 |
| sdCD33_9 (VHH, sdAb from a naive llama phage library; also called 426; sdAb426) VHH: QVKLEESGGGLVRAGGSLRLSCAASGGTFSTYAMAWFRQAPGKEREFVAAITWGGGSTYYEDSVKGRFTISRDNAKNTGVLQMNNLDVDDTAVYYCYAFGRSRAGDANGDYWGQGTQVTVSS | 99.2 |
| sdCD33_2 (VHH) VHH: QVQLVQPGGSLRLFCVASEEFFSIYAMGWYRQAPGKQHEMVARFTRDGKITYADSAKGRFTITRDAKNTLNLQMNGLIPEDTAVYYCNINHYWGQGTQVTVSS | 98.3 |
| sdCD33_6 (VHH, sdAb from a naive llama phage library; also called 416; sdAb416) VHH: EVQLVESGGGLVQPRGSLRLSCVVSGSMSSIYSMSWYRQPPGKQRELVAHITTTGTTNYIDSVKGRFTISIDNDINVIYLQMNTLKPEDTAVYYCNAGLKAGPGPRLDYWGLGTQVTVSS | 98.8 |
